Listing of entries alongside the reported growth.
test system: SF-268 CNS; assay: NCI-60 one-dose screen, 48 h (100 = growth as untreated, 0 = no growth, -100 = all killed); details: 10 µM unless noted
This is part of a sample that, as a whole, favours compounds with a hit. Of some 83,000 tested, about 20% had one in any assay.
Entry rule: numbers only, all in %.

// field: growth; key: CC[C@H](C)[C@H](NC(=O)N[C@@H](C)c1ccccc1)C(=O)N(C)[C@H](C[C@@H](OC(C)=O)c1nc(C(=O)N[C@@H](Cc2ccccc2)C[C@H](C)C(=O)OC)cs1)C(C)C ; value = 22.2

Entry COC(=O)CCc1c[nH]c2ccc(N(CCCl)CCCl)cc12 , growth reported as 40.6

compound O=C1C=C2C(=CCOC2O)O1 (configuration not stated) , growth observed: 3.53

The reported growth of the compound CCOC(=O)[C@@H](C)C[C@H](Cc1ccccc1)NC(=O)c1csc([C@@H](C[C@H](C(C)C)N(C)C(=O)[C@H](CC)NC(=O)[C@H]2CCCCN2C)OC(C)=O)n1 was 29.1

The compound listed as CC1(C)[C@H](O)[C@H](F)C[C@@]2(C)Oc3ccc(C(=O)Nc4ccc5c(c4)NC(=O)C54CCN(CCCCC#N)CC4)cc3C[C@H]12 has a reported growth of 43.6
